# SYSTEM: recombinant human KIT tyrosine kinase protein (Homo sapiens (Human), UniProt P10721)
# Sequence (P10721 546-976): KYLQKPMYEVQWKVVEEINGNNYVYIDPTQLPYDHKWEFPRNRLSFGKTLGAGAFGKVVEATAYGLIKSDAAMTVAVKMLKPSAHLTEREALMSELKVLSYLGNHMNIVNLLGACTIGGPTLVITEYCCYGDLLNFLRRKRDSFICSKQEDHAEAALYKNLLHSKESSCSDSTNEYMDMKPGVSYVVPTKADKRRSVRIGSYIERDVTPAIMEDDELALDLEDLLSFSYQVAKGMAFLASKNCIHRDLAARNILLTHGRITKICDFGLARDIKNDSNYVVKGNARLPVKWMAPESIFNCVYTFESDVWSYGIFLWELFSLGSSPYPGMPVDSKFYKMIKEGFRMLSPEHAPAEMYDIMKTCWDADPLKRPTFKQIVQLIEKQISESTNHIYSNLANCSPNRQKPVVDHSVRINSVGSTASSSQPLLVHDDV
# TEST_METHOD_NOTES: KIT tyrosine kinase assay (ADP-Glo)
# Assay type: biochemical
# MEASUREMENT_PARAMETERS: Table 99
EXPERIMENTAL_READOUT: log10 IC50 (log10 of the value in nM)
Friendly reminder: values = log10 of IC50, unit nM.

Please review the following examples before continuing.
compound="CN(c1cnc(CNC(=O)c2cc3[nH]c(=O)[nH]c3cc2F)cn1)C1CCC(F)(F)C1 (stereo not drawn)" experimental_readout="log10 IC50" experimental_value=1.54
compound="CN(c1ccc(CNC(=O)c2ccc3c(c2)[nH]c(=O)n3C)cn1)C1CC(OC(F)F)C1 (single isomer, unassigned) [106 Isomer II]" experimental_readout="log10 IC50" experimental_value=1.34
compound=CC(C)Oc1ccc(CNC(=O)c2ccc3c(c2)[nH]c(=O)n3C)cn1 experimental_readout="log10 IC50" experimental_value=2.44
compound=CN(c1ccc(CNC(=O)c2ccc3c(c2)[nH]c(=O)n3C)cn1)[C@H]1C[C@@H]1C(F)(F)F experimental_readout="log10 IC50" experimental_value=1.67
compound=CN(c1ccc(CNC(=O)c2cc(F)c3[nH]c(=O)[nH]c3c2)cn1)C1CCC(F)(F)CC1 experimental_readout="log10 IC50" experimental_value=1.54

Please turn your attention to the following entry.
Q) Which log10 IC50 reading was recorded for the compound CN(c1ccc(CNC(=O)c2ccc3c(c2)[nH]c(=O)n3C)cn1)[C@H]1CC[C@@H](F)C1 ?
A) 1.52
